target: COVID S1 RBD Fc fusion (Antigen 1) (SARS-CoV-2), P0DTC2; assay: phage ELISA; settings: remark: other sources report otherwise
Measurement Name: ELISA fold over background

binder="SARS-CoV-2 variant 1-49 (antibody) chain 1: EVQLLESGGGLVQPGGSLRLSCAASGFTFSSYAMYWVRQAPGKGLEWVSAISGSAGSTYYADSVKGRFTISRDNSKNTLYLQMNSLRAEDTAVYYCARDTNDFWGQGTLVTVSS chain 2: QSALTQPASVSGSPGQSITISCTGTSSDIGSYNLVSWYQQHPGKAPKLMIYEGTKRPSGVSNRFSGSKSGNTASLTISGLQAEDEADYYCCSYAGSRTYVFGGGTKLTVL" measurement_name="ELISA fold over background" reported="1 fold"
binder="SARS-CoV-2 variant 1-32 (antibody) chain 1: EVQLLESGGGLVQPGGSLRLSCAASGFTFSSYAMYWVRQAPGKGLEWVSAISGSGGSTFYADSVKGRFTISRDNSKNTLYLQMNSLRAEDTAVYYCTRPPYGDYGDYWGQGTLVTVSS chain 2: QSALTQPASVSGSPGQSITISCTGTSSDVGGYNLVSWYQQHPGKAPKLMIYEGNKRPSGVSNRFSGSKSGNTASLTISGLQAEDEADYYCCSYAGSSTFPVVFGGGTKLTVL" measurement_name="ELISA fold over background" reported="1.5 fold"
binder="SARS-CoV-2 variant 1-5 (antibody) chain 1: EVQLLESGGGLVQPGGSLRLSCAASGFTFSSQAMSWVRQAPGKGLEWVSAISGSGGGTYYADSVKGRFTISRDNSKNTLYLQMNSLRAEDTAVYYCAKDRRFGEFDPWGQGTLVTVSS chain 2: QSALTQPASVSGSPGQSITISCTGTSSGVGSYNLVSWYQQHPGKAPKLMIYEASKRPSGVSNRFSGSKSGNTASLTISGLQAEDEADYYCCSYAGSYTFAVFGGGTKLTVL" measurement_name="ELISA fold over background" reported="1.6 fold"

Sourced from patent US20210355194A1
